# TEST_NAME: thallium influx changes without GIRK channels – cell-based, HEK-293 rmGlu8, no GIRK, thallium flux, counter-screen for GIRK activator project, confirmation (AID 623868)
# DETAILS: thallium flux fluorescence, at 10 µM, actives lie on both sides, codes: 1 enhancer, -1 blocker, 0 none, thallium stimulus containing EC20 glutamate
Among all 2,100 compounds or so, about 760 (36%) were called active.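 How the source made its calls: active means thallium-flux fluorescence traces judged by eye to show enhanced or reduced glutamate response, manual score 1 or -1, so both directions (some results past the limit were not filed as active); inactive means the rest, including fluorescent or raised-baseline compounds.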 Only a sample is shown.
One label from this list, please: active, inactive

Please review the following examples before continuing.
INSERT INTO measurements (chem_smiles, qualitative_label) VALUES
  ('CCOC(=O)c1c(NS(=O)(=O)Cc2ccccc2)sc2c1CCCC2', 'active'),
  ('Cc1ccc(CNC(=O)Cc2csc(Nc3nc(=S)[nH]c4ccccc34)n2)cc1', 'active'),
  ('Cc1cnc(NC(=O)CSc2nc3ccccc3c(=O)[nH]2)s1', 'inactive'),
  ('Cc1csc(SCC(=O)Nc2nc3ccccc3s2)n1', 'inactive'),
  ('COc1ccc(C(=O)NNC(=S)NC(=O)c2ccco2)cc1', 'active');

Query block: Assay result, entry `COc1ccccc1C(=O)NNC(=S)NC(=O)c1ccco1` — outcome?
Result block: active
